Assay text: PSAC antagonists in infected red cells, primary screen, cell-based, P. falciparum Indochina, OD700, 1 h (AID 1154)
Setup conditions: P. falciparum Indochina infected RBC osmotic lysis, higher = more signal, called active from +8 up or from −8 down
Active and inactive are the calls of the source.
Measured metric: z-score

Problem: Requested read-out: z-score. Entry: CO[C@H]1COC(=O)[C@@H](Cc2ccccc2)NC(=O)[C@@H](C)COC(=O)CCC[C@@H]1C
Result: -1.19 (inactive)

Problem: And what about the molecule CCCCC#C[C@@H]1C=C[C@H](Oc2cc(OC)c(OC)c(OC)c2)[C@@H](COC(=O)OCC)O1 ?
Result: 8.03 (active)

Problem: // same read-out, input: COc1ccc(O[C@H]2C=C[C@@H](c3ccccc3)O[C@@H]2CON=C(C)C)cc1
Result: 0.288 (inactive)

Problem: How about COC(=O)[C@H](C)NC(=O)CCC1CC(OC(=O)NCc2ccc3c(c2)OCO3)CC2(CCCC(COC(=O)NCC3CCCCC3)O2)O1 (stereo partly specified) ?
Result: 0.858 (inactive)

Problem: // repeat for CCC1=NOC(CCC2CC(OC(=O)NCc3cccc4c3OCO4)CC3(CCCC(COC(=O)NCCc4ccccc4OC)O3)O2)C1 (stereo unspecified) and report
Result: 15.9 (active)

Problem: Can you check COc1cccc([C@H]2Oc3ccc(OC)cc3C(=NOC[C@@H](O)[C@H]3O[C@@H]4OC(C)(C)O[C@@H]4[C@H]3O)[C@@H]2O)c1 next?
Result: 5.05 (inactive)
